# assaySystem: UniProt:P08172
# Sequence (P08172 1-466): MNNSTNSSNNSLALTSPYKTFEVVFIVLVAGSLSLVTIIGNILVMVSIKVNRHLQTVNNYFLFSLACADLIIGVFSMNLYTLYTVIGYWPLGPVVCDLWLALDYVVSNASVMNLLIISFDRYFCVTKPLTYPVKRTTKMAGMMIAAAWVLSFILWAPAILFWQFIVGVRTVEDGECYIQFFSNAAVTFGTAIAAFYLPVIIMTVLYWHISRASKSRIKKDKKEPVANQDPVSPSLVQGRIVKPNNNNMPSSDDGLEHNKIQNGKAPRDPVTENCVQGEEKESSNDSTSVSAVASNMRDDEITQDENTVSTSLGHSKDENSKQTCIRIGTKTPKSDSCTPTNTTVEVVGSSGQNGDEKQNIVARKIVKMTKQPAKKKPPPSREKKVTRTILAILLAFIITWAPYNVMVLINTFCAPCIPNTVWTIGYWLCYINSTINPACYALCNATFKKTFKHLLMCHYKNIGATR
# testProtocol: Functional M2-GIRK1/4 activation test: allosteric potency (EC50) and efficiency
# setupConditions: Receptor activity EC50, CHO-DUKX-M2-GIRK cells; acetylcholine at EC20; in some cases mean of two or more determinations
pEC50: −log10 of the molar value.
Parameter: pEC50. Scope: all listed entries.

[
  {
    "compound": "O=C(NC(CC(F)(F)F)C(F)(F)F)c1cn(-c2ncc(F)cc2F)c2nc(N3C[C@@H](O)CC3=O)ccc2c1=O (stereo partly shown) [Example 159]",
    "pEC50": 7.03
  },
  {
    "compound": "O=C(NC1(C(F)(F)F)CCCC1)c1cn(-c2ncc(F)cc2F)c2nc(N3C[C@@H](O)CC3=O)ccc2c1=O [Example 79]",
    "pEC50": 7.27
  },
  {
    "compound": "O=C(NC1CCC1)c1cn(-c2ncc(F)cc2F)c2nc(N3C[C@@H](O)[C@H](O)C3)ccc2c1=O [Example 168]",
    "pEC50": 5.55
  },
  {
    "compound": "CC[C@@H](NC(=O)c1cn(-c2ncc(F)cc2F)c2nc(N3CCOCC3)ccc2c1=O)C(F)(F)F [Example 71]",
    "pEC50": 6.44
  },
  {
    "compound": "CC[C@@H](NC(=O)c1cn(-c2ncc(F)cc2F)c2nc(N3CC4CC4(O)C3)ccc2c1=O)C(F)(F)F (single isomer, unassigned) [Example 44]",
    "pEC50": 7.51
  },
  {
    "compound": "O=C(N[C@H](C1CC1)C(F)(F)F)c1cn(-c2ncc(F)cc2Cl)c2nc(N3CC4CC4(O)C3)ccc2c1=O (mixture of isomers) [Example 52]",
    "pEC50": 7.32
  },
  {
    "compound": "CCC(COC(F)(F)F)NC(=O)c1cn(-c2ncc(F)cc2F)c2nc(N3C[C@@H](O)CC3=O)ccc2c1=O (single isomer, unassigned) [Example 19]",
    "pEC50": 7.07
  },
  {
    "compound": "CC[C@@H](NC(=O)c1cn(-c2ncc(F)cc2F)c2nc(N3CC4CC4(O)C3)ccc2c1=O)C(F)(F)F (mixture of isomers) [Example 43]",
    "pEC50": 7.19
  },
  {
    "compound": "CC(C)(NC(=O)c1cn(-c2ncc(F)cc2F)c2nc(N3CCC[C@@H]3CO)ccc2c1=O)C(F)(F)C(F)(F)F [Example 188]",
    "pEC50": 6.93
  },
  {
    "compound": "CC1(NC(=O)c2cn(-c3ncc(F)cc3F)c3nc(N4C[C@@H](O)[C@H](O)C4)ccc3c2=O)CC(F)(F)C1 [Example 170]",
    "pEC50": 5.65
  },
  {
    "compound": "CC[C@H](NC(=O)c1cn(-c2ncc(F)cc2F)c2nc(N3CC(O)C(C)C3=O)ccc2c1=O)C(F)(F)F (mixture of isomers) [Example 108]",
    "pEC50": 6.73
  },
  {
    "compound": "CC[C@@H](NC(=O)c1cn(-c2ncc(F)cc2F)c2nc(N3CCC(C)(O)C3)ccc2c1=O)C(F)(F)F (mixture of isomers) [Example 46]",
    "pEC50": 6.41
  },
  {
    "compound": "O=C(NC(C(F)(F)F)C(F)(F)F)c1cn(-c2ncc(F)cc2F)c2nc(N3C[C@H](O)[C@@H](O)C3)ccc2c1=O [Example 60]",
    "pEC50": 6.56
  }
]
